Molecular target: T1, human FXR LBD H447A recombinant protein (human)
T1 chain: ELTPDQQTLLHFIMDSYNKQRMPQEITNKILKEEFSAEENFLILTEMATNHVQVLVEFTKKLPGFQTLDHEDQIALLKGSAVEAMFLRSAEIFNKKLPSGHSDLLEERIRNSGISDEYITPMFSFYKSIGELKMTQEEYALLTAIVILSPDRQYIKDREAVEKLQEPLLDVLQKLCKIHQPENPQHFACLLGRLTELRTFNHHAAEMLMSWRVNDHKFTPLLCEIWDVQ
Test: SPR; with GPA
Ends that are not written are not given here.
propertyLabel: Kd (µM)
The answer is to be given in µM; state only the numeric part.

The binder listed as QEPVSPKKKENALLRYLLDKDDTKD (also: biotinylated (position not given here)) [SRC2-3 biotinylated cofactor peptide] has a reported Kd of 355
